# ASSAY SUMMARY: yeast display, Sf9 membrane polyspecificity reagent, FACS + sequencing; frameworks hold sequencing errors
ENDPOINT NAME: polyreactivity (PSR sort gate)

INSERT INTO assay_data (residues, value_observed) VALUES
  ('QVQLLESGGGLVQAGGSLRLSCAASGYIFLRNAMGWYRQAPGKERELVAAIRRTGGSTYYADSVKGRFTISRDNAKNTVYLQMNSLKPEDTAVYYCAKRSYTGYEYWGQGTQVTVSS', 'low polyreactivity'),
  ('QVQLVESGGGLVQAGGSLSLSSAASGRTFTFNTMGWYRQAPGKERELVAAIDGDGTTNYADSVKGRFTISRDNAKYTVYLQMNSLKPEDTAVYYCAADFLYSFWYEPTFDYWGQGTQVTVSS', 'low polyreactivity'),
  ('QVQLVESGGGLVQARGSLRLSCAASALTFRIYDMGWYRQAPGKERELVAAITRGGSTYADSVKGRFTISRDNAKNTVYLQMNSLKPEDTAVYYCAARVRSTSQVSASPVWYYYWGQGTQVTVSS', 'high polyreactivity'),
  ('QVQLVESGGGLVQGGGSLRLSCAASGRTFQRYAMGWYRQAPGKERELVAAISNRGGSTYYADSVKGRFTISRDNAKNTVYLQMNSLKPEDTAVYYCRTSTPRRVSGNYWGQGTQVTVSS', 'high polyreactivity'),
  ('PVQLLESGRGLVQAGGRLRLSCAASGINFKYNAMGWYRQAPGKERELVAAISWRGGSTYYADSVKGRFTISRDNAKNTVSLQMNSLKPEDTAVYSCAANLAGSSYYDWGQGTQVTVSS', 'low polyreactivity'),
  ('QVQLVESGGGLVQAGGSLRLSCAASGSTFGNYAMGWYRQAPGKERELVATISRSGGSTYYADSVKGRFTISRDNAKNTVYLQMNSLKPEDTAVYYCNRRYYTRKPDYNSWGQGTQVTVSS', 'high polyreactivity'),
  ('QVQLVESGGGLVQAGGSLRLSCAASGRTFARYAMGWYRQAPGKERELVAAISWSGGRTYYADSVKGRFTISRDNAKNTVYLQMNSLKPEDTAVYYCAASLYRRQMDHWGQGTQVTVSS', 'high polyreactivity'),
  ('QVQLVESGGGLVQAGGSLRLSCAASGSISFLYTMGWYRQAPGKERELVAAITGSTASTYYADSVKGRFTISSDYAKNTVYLQMKSLKPEDTAVYYCAAYWYAVGYWVSRDYWGQGTQVTVSS', 'low polyreactivity'),
  ('QVQLVESGGGLVQAGGSLRLSCAASGSTFRVYAMGWYRQAPGKERELVAGITQTSGRTYYADSVKGRFTISRDNAKNTVYLQMNSLKPEDTAVYYCARESYSSYFHYYYWGQGTQVTVSS', 'high polyreactivity'),
  ('QVQLVESVGGLVQAGGSLRLSCAASGSIFAPYAMGWYRQAPGKERELVAAITWSGDSTYYADSVKGRFTISRDNAKNTVYLQMNSLKPEDTAVYYCATEEVYGQGNYWGQGTQVTVSS', 'low polyreactivity'),
  ('QVQLVESGGGLVQAGGSLRLSCAASGSTFNSYAMGWYRQAPGKERELVAAISWSGGSTYYADSVKGRFTISRDNAKNTVYLQMNSLKPEDPAVYYCNADYWWEYAYGVDYWGQGTQVTVSS', 'low polyreactivity');

* * *

# ASSAY SUMMARY: yeast display, Sf9 membrane polyspecificity reagent, FACS + sequencing; frameworks hold sequencing errors
ENDPOINT NAME: polyreactivity (PSR sort gate)

INSERT INTO results (residues, endpoint_name, value_observed) VALUES
  ('QDQLVESGGGLVQAGASLRLSCAASGFIFSYYAMGWYRQAPGKERELVAAITWSGSSTYYADSVKGRFTISRDNAKNTVYLQMNSLKPEDTAVYYCPASSGGFRHYYYTYNYWGQGTQVTVSS', 'polyreactivity (PSR sort gate)', 'high polyreactivity'),
  ('QVQLVESGGGLVQAGGSLRLSCAASGRTLPAYAMGWYRQAPGKERELVAAISWGGGSTYYADSVKGRFTISRDNAKKTVYLQMNSLKPEDTAVYYCAVAGYWFAVAEYDYWGQGTQVTVSS', 'polyreactivity (PSR sort gate)', 'low polyreactivity'),
  ('QVQLVESGGGLVQAGGSLGLSCAAYGSTFRYYAMGWYRQAPGKERELVAAISSAGNTYYADSVKGRFTISRDNAKNTVYLQMNSLKPEDTAVYYCAAKYSYYTYAGDGGLFSCSYGYWGQGTQVTVSS', 'polyreactivity (PSR sort gate)', 'low polyreactivity'),
  ('QVQLVESGGGLVQAGGSLRLSCAASGLIFGGNAMGWYRQAPGKERELVAAISRSTGRTYYADSVKGRFTISRDNEKNTVYLQMNSLKPEDTAVYYCNAVGYAFPSYDSWGQGTQVTVSS', 'polyreactivity (PSR sort gate)', 'high polyreactivity'),
  ('QVQLVESGGGVVQAGGSLRLSCAAYGRTFYVYTLGWYRPAPGKERELVAANTSGGSTNYADCVMGRFTISRDYAKNTVYLQMNSLKPEDTAVYYCAAKRYNRLRSYRYSDREDYWGQGTQVTVSS', 'polyreactivity (PSR sort gate)', 'high polyreactivity');

* * *

# ASSAY SUMMARY: yeast display, Sf9 membrane polyspecificity reagent, FACS + sequencing; frameworks hold sequencing errors
ENDPOINT NAME: polyreactivity (PSR sort gate)

INSERT INTO assay_data (residues, value_observed) VALUES
  ('QVQLVESGGGLVQAGGSLRLSCAASGRIFYIHAMGWYRQAPGKERELVAAITSNGGSTYYADSVKGRFTISRDNAKNTVYLQMNCLKPEDTAVYYCAARRYKVSRTSYGYGYWGQGTQVTVSS', 'high polyreactivity'),
  ('QVQLVESGGGLVQAGGSLRLSCAASGYTFGINAMGWYRQAPGKERELVAAITTGGSTNYADSVKGRFTISRDNAKNSVYLQMNSLKPEDTAVYYCNASWDVWNANYWYPGAYYYWGQGTQVTVSS', 'low polyreactivity'),
  ('QVQLVESGGGLVQAGGSLRLNCAASGSTFGYYAMGWYRQAPGKQRELVAAITSGASTNYADSVKGRFTISRDNAKNTVYLLMNSLKPEDTAVYYCSAGFQTRTPLNEFDYWGQGTQVTVSS', 'low polyreactivity'),
  ('QVQLVESGGGLVQAGGSLRLSCAASGSIFQGYAMGWYRQAPGKERELVAGITSSGGRTRYADSVKGRFTISRDNAKNTVFLQMNSLKPEDTAVYYCAADYVRHIGYNYWGQGTQVTVSS', 'high polyreactivity'),
  ('QVQLVDSGGGLVQAGVSLRLSCAASGSTFVFYAMGWYRQAPGKERELVAGISWSGGSTYYADSVKGRFTISRDNAKNTVYLQMNSLKPEDTAVYYCAARYTRYLGSGYYYCGQGTQVTVSS', 'high polyreactivity'),
  ('QVQLVESGGGLVQAGGSLRLSCPASGSTFTLYVMGWYRPAPGKERELVAAISSNGGRTYYADSVKGRFTISRDNAKNTVYLQMNSLKPEDTAVYDCAAGKIGRYHYDYWGQGTQVTVSS', 'high polyreactivity'),
  ('QVQLVESGGGLVKAGGSLRLSCAASGFNFGGNVMGWYRQAPGKERELVAAITYSGGSTYYADSVKGRFTISRDNAKNTVYLQMNSLKPEDTAVYYCAAVQRKYYIDPAYDYWGQGTQVTVSS', 'low polyreactivity'),
  ('QVQLVESGGVLVQAGGSLRLSCAASGSIYRYYAMGWYRQAPGKERELVAAISWRGGSTYYADSVKGRFTISRDNAKNPVYLQMNSLKPEDTAVYYCAAELWVGTYGEYDYWGQGTQVTVSS', 'low polyreactivity'),
  ('QVQLVESGGGLVQAGGSLRLSCAASGITIRGYAMGWYRQAPGKERELVAAINTRTSTYYADSVKGRFTISRDNAKNTVYLQMNSLKPEDTAVYYCNRDPVYYDFDYWGQGTQVTVSS', 'low polyreactivity'),
  ('QVQLVESGGGLVQAGGSLRLSCAASGFIFVDNAMGWYRQAPRQERELVASITRGGSTDYADSVKGRFTISRDNAKNTVYLQRNSLKPEDTAVYYCAASWHRPAPDEGMDYWGQGTQVTVSS', 'low polyreactivity'),
  ('QVQLVESGGGLVQAGGSLRLSCAASGRIFYYNGMGWYRQAPGKERELVAAITANGGSTYYADSVKGRFTISRDNAKHTVYLQMNSLKPEDTAVYYCAAVYQLYYSAGRGYDYWGQGTQVTVSS', 'high polyreactivity');

* * *

# ASSAY SUMMARY: yeast display, Sf9 membrane polyspecificity reagent, FACS + sequencing; frameworks hold sequencing errors
ENDPOINT NAME: polyreactivity (PSR sort gate)

INSERT INTO measurements (residues, endpoint_name, value_observed) VALUES
  ('QVQLVESGGGLVQAGGSLRLSCAASGNTFPINAMGWYRQAPGKERELVATITRPGGSTYYADSVKARFTISRDNAKNTVYLQMNSLKPEDTAVYYCAAANYTYASRWYDYWGQGTQVTVSS', 'polyreactivity (PSR sort gate)', 'low polyreactivity'),
  ('QVQLVESGGGLVQAGGSLRLSCAASGSIFAKYAMGWYRQAPGKERELVAAISSGGSTYYADSVKGRFTISRDNAKNTVYIQMNSLKPEDTAVYYCAADYGSDYTKGDYWGQGTQVTVSS', 'polyreactivity (PSR sort gate)', 'low polyreactivity'),
  ('QVQLVESGGGLVQAGGSLRLSCAPSGRIFTHNVRGWYRQAPGKERELVAAISASGGSTYYADSVKGRFTISRDNAKNTVYLQMNSLKPEDTAVYYCNAEWAVRYPGYDYWGQGTQVTVSS', 'polyreactivity (PSR sort gate)', 'low polyreactivity'),
  ('QVKLVDSGGGLVQAGGILRLSCAASGRIFSDYAMGWYRQAPGKERELVATITSGDSTNYADSVKGRFTISRDNAKNTVYLQMNSLKPEDTAVYYCNADRVYVRGRFTYDYWGQGTQVTVSS', 'polyreactivity (PSR sort gate)', 'low polyreactivity'),
  ('QGQLVESGGGLVQAGGSLRLSCAASGSTFLHYAMGWYRQAPGKERELVAAISRRGGRTYYADSVKGRFTISRDNAKNTVYLQMNRLKPEDTAVYNCAVDGIRDGYWIFYYWGQGTQVTVSS', 'polyreactivity (PSR sort gate)', 'low polyreactivity'),
  ('QVQLVESGGGLVQAGGSLRLSCAASGRTFNRYGMGWYRQAPGKERELVASITSGGSTNYADSVKGRFTISRDNAKNTVYLQMNSLKPEDTAVYYCAKRSIGRYPRTYDYWGQGTQVTVSS', 'polyreactivity (PSR sort gate)', 'low polyreactivity'),
  ('QVQLQESGGGLVQAGGSLRLSCEASGSIYYPRTMGRSRQAPGKELEFVAGSGVGGTTYYADSVKGRFTISRDNAKNTVYLQMNSLIPEDDAVYYCAVAAYYDKYYVYWGQGTQVTVSC', 'polyreactivity (PSR sort gate)', 'low polyreactivity'),
  ('QVHLVESGGGLVQAGGSLRLSCAASGRTFYDYAMGWYRQAPGKERELVAAITYSGGSTFYADSVKGRFTISRDNAKNTFYLQMNSLKPEDTAVYYCAAEVLRLVGAAEYDYWGQGTQVTVSS', 'polyreactivity (PSR sort gate)', 'low polyreactivity'),
  ('QVQLVESGGGLVQAGGSHRLSCAASGSIFAIYAMGWYRQAPGKERELVAAISSSSGSTYYADSVKGRFTISRDNAKNTVYLQMNSLKPEDTAVYYCAAESGRRIKYWRGYYYWGQGTQVTVSS', 'polyreactivity (PSR sort gate)', 'low polyreactivity'),
  ('QVQLVESGAGLVQAGGSLRLSCAASGRTFFRYVMGWYRQAPGKERELVAAIRSGGSTNYADSVKGRFTISLDNAKNTVYLQMNSLKPEDTAVYYCAARKWHSAYDYWVQGTQVTVSS', 'polyreactivity (PSR sort gate)', 'high polyreactivity'),
  ('QVHLVESGGGLVQAGGSLRLSCAASGSNFRSYAMGWYRQAPWKERELDAAISSSGGRTYYADSVKGRFTISRDNAKNTVYLQMNSVKPEDNAVYYCAAYRGGGYKYDYWGQGTQVTVSS', 'polyreactivity (PSR sort gate)', 'high polyreactivity');

Hello, the source for this data is the nanobody polyreactivity screen of Harvey et al. (2022), in case you need it.
